pIC50 for assorted compounds
Assayed System: Serine/threonine-protein kinase SMG1 (Homo sapiens)
Sequence (Q96Q15 whole entry): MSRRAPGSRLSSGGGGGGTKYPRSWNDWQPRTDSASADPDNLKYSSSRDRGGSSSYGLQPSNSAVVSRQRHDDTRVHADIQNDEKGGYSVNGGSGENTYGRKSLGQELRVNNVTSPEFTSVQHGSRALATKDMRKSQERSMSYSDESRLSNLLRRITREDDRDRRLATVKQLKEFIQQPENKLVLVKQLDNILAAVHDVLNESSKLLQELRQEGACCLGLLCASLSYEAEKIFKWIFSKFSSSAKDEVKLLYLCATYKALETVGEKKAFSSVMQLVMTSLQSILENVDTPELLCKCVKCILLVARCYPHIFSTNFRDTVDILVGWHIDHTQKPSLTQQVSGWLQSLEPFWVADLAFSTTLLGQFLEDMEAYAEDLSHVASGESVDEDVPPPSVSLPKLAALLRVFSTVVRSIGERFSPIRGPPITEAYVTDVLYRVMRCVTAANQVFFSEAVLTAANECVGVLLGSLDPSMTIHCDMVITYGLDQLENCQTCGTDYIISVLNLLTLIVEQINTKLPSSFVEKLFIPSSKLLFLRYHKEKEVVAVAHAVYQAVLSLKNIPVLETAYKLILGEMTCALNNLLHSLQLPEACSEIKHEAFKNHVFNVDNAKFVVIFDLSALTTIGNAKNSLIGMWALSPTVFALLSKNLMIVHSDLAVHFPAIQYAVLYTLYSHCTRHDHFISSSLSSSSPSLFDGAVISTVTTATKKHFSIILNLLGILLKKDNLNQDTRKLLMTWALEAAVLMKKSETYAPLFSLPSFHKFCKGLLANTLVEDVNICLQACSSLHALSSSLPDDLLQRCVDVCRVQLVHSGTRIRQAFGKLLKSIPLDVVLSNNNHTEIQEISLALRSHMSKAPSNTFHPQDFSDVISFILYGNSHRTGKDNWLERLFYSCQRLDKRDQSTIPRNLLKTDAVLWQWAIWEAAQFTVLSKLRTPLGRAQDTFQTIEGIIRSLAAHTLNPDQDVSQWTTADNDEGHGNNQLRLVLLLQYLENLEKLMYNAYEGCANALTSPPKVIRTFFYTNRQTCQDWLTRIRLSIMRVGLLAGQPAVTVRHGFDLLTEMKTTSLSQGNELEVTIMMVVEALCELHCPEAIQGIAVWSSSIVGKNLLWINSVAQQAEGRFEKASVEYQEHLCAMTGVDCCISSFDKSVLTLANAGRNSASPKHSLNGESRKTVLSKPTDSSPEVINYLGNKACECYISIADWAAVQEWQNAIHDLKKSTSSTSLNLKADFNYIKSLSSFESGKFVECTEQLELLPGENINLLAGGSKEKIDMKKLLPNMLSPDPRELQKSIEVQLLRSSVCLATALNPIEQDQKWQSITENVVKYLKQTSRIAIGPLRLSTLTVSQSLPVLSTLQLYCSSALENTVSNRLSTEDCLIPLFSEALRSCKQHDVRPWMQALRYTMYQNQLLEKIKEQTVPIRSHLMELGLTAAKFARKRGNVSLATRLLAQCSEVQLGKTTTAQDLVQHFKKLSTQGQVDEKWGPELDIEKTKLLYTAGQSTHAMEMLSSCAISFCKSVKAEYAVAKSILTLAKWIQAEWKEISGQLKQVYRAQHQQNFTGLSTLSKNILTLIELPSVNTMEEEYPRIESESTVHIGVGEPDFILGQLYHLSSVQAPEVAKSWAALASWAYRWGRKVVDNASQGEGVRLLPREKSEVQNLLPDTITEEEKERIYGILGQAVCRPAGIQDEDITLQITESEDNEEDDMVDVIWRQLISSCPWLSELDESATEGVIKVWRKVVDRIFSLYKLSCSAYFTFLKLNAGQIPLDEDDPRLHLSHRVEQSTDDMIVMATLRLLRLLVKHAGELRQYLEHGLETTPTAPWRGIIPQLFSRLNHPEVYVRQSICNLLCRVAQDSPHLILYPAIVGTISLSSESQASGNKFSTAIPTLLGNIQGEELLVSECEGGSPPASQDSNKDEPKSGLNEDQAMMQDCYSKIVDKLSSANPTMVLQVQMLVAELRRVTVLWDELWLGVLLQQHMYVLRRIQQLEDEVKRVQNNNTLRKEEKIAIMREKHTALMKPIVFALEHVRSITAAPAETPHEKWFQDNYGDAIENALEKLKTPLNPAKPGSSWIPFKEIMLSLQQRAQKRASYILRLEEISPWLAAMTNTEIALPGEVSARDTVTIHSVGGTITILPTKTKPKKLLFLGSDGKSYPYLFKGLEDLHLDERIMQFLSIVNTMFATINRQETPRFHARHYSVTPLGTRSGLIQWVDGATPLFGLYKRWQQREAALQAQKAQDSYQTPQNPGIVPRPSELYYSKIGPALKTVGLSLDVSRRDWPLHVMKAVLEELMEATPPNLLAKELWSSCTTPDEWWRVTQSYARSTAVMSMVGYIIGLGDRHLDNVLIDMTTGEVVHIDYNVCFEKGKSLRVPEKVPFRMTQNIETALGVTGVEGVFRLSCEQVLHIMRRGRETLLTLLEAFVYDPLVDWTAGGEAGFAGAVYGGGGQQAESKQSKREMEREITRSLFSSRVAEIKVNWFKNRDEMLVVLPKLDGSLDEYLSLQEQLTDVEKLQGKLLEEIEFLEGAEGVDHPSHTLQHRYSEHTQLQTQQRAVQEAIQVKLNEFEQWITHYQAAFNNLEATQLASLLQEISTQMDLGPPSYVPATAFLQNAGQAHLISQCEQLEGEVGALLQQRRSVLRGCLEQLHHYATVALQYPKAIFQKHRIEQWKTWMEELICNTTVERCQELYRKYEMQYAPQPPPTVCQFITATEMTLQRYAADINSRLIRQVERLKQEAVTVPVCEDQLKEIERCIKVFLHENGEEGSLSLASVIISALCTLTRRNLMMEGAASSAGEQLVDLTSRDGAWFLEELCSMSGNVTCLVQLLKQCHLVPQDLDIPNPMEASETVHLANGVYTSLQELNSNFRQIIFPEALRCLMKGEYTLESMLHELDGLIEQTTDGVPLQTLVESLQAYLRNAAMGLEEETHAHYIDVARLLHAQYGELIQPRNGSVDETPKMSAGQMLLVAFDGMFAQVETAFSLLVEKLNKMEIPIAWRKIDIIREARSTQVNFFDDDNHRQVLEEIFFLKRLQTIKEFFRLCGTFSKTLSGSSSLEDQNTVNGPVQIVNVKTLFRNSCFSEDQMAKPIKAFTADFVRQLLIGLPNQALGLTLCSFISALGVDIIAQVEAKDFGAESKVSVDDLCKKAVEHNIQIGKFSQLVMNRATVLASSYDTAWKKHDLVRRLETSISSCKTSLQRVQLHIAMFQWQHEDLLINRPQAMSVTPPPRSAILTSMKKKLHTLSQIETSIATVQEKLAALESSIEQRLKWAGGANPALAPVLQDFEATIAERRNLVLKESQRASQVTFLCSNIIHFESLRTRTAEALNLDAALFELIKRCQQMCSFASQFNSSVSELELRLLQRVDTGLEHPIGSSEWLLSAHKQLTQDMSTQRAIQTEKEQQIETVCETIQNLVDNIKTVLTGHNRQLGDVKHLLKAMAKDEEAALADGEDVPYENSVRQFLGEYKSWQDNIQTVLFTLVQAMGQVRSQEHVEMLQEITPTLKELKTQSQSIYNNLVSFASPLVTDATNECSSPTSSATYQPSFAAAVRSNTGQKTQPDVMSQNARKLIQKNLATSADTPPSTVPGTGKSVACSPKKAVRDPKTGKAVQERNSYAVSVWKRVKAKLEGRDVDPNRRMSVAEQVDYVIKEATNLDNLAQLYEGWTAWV
Protocol Notes: Inhibition of human recombinant SMG1 expressed in HEK293 cells using GST-tagged p53 as substrate after 1 hr by DELFIA assay
pIC50: −log10 of the molar value.

-- ask Output measured pIC50 for this item: CNC(=O)Nc1ccc(-c2cc(-c3ccnc(Nc4ccc(C)c(S(=O)(=O)NC)c4)n3)ccn2)cc1
-- reply > 10.30

-- ask Please supply the value of reported pIC50 for the item CNC(=O)Nc1ccc(-c2cc(-c3ccnc(Nc4ccc(C)c(S(=O)(=O)N(C)C)c4)n3)ccn2)cc1
-- reply > 10.30

-- ask Provide one value: measured pIC50 of Cc1cccc(Nc2nccc(-c3ccnc(N4CCOCC4)c3)n2)c1
-- reply 6.48

-- ask Determine from records and report pIC50 for CNC(=O)Nc1ccc(-c2cc(-c3ccnc(Nc4ccc(Cl)c(S(=O)(=O)NC)c4)n3)ccn2)cc1
-- reply > 10.30

-- ask Read the entry CNC(=O)Nc1ccc(-c2cc(-c3ccnc(Nc4cccc(S(N)(=O)=O)c4)n3)ccn2)cc1 and write its reported pIC50.
-- reply > 10.30

-- ask Given the compound CNC(=O)Nc1ccc(-c2cc(-c3ccnc(Nc4ccc(Cl)c(S(=O)(=O)N(C)C)c4)n3)ccn2)cc1 , write its reported pIC50.
-- reply > 10.30
